The measurements presented in this section are drawn from patent US8491891B2.

System: EJ/mβG cells
Assay: Sensitivity of EJ/mβG cells to CPT-11, SN-38, SN-38G (3H-thymidine incorporation)
Conditions: read-out: IC50 (cytotoxicity); EJ/mβG cells, pH 7.4
valueKind: IC50 (nM)
Express it in nM; write the number only.

Reported IC50, compound CCc1c2c(nc3ccc(O)cc13)-c1cc3c(c(=O)n1C2)COC(=O)[C@]3(O)CC : ____
6

* * *

Tested on: EJ human bladder carcinoma cells
Assay: Sensitivity of EJ cells to CPT-11, SN-38, SN-38G (3H-thymidine incorporation)
Settings: read-out: IC50 (cytotoxicity), pH 7.4
valueKind: IC50 (nM)
Express it in nM; write the number only.

Reported IC50, compound CCc1c2c(nc3ccc(O)cc13)-c1cc3c(c(=O)n1C2)COC(=O)[C@]3(O)CC : ____
6
